Assay: Oral bioavailability in mouse
Type: ADME, organism-based
Conditions: in vivo
A collection of compounds and their measured bioavailability

# compound, unit of measure, bioavailability
records = [
    ("CC(=O)N(C)[C@H](C(=O)N1C[C@H](C)C[C@H]1C(=O)N(C)[C@@H]1C(=O)N[C@@H](CC(C)C)C(=O)N2C[C@H](C)C[C@H]2C(=O)N[C@@H](CC(C)C)C(=O)N(C)[C@@H](C(C)C)C(=O)N2CC(C)C[C@H]2C(=O)N(C)[C@H](CC(C)C)C(=O)NCC(=O)O[C@@H]1C)C(C)C (some centres not stated)", "%", 47),
    ("CC(=O)N(C)[C@H](C(=O)N1C[C@H](C)C[C@H]1C(=O)N(C)[C@@H]1C(=O)N[C@@H](CC(C)C)C(=O)N2C[C@H](C)C[C@H]2C(=O)N[C@@H](CC(C)C)C(=O)N(C)[C@@H](C(C)C)C(=O)N2CC(C3CCCCC3)C[C@H]2C(=O)N(C)[C@H](CC(C)C)C(=O)NCC(=O)O[C@@H]1C)C(C)C (some centres not stated)", "%", 89),
]

----------
Test: Binding affinity to actin (unknown origin) assessed as dissociation constant
Set-up: species or system Homo sapiens
endpoint label: log10(Kd) (log10 of the value in nM)

# molecule, log10(Kd)
records = [
    ("COCCC(=O)NC[C@H](O)[C@H](C)C(=O)NCCC[C@H]1O[C@@]2(CCC[C@@H](CC[C@@H](C)/C=C(\\C)[C@@H](C)O)O2)CC[C@@H]1C", 0.95),
    ("C=CCC1CC[C@H](C)[C@H](CC(=O)NC[C@H](O)[C@H](C)C(=O)NCCC[C@H]2O[C@@]3(CCC[C@@H](CC[C@H](C)C=C)O3)CC[C@@H]2C)O1 (stereo partly specified)", 1.59),
    ("C=C[C@H](C)CCC[C@@H]1CCC[C@]2(CC[C@H](C)[C@@H](CCCNC(=O)[C@@H](C)[C@@H](O)CNC(=O)C[C@@H]3OC(CC(=O)/C=C/C)CC[C@@H]3C)O2)O1 (stereo partly specified)", 1.85),
    ("C/C=C/C(=O)C[C@H]1CC[C@H](C)[C@H](CC(=O)NC[C@H](O)[C@H](C)C(=O)NCCC[C@H]2O[C@@]3(CCC[C@@H](CC[C@@H](C)/C=C(\\C)[C@@H](C)O)O3)CC[C@@H]2C)O1", 0.85),
    ("C=C[C@@H](C)CC[C@@H]1CCC[C@]2(CC[C@H](C)[C@@H](CCCNC(=O)[C@@H](C)[C@@H](O)CNC(=O)CCOC)O2)O1", 1.63),
    ("C=CCC[C@@H]1CCC[C@]2(CC[C@H](C)[C@@H](CCCNC(=O)[C@@H](C)[C@@H](O)CNC(=O)C[C@@H]3OC(CC(=O)/C=C/C)CC[C@@H]3C)O2)O1 (stereo partly specified)", 3.18),
]

----------
Target: Cyclin-dependent kinase 9 (Homo sapiens, UniProt P50750)
Sequence (P50750 whole entry, the tested form may be a part): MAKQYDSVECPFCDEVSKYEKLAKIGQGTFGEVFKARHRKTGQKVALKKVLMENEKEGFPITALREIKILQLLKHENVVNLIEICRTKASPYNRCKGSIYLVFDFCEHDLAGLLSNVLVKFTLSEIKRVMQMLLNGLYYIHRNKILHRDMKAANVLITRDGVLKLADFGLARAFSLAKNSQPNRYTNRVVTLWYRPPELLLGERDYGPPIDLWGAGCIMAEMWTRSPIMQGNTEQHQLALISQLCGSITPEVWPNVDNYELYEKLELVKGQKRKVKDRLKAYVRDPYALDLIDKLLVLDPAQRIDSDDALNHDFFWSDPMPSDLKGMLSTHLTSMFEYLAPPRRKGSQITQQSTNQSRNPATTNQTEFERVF
Assay: Inhibition of human recombinant CDK9 (773 to 928 residues) expressed in insect cells
Set-up: species or system Insect cell
endpoint label: IC50

# structure smiles, study target, result
data = [
    ("Nc1nccc(-c2c3cccnc3n3c(N)nccc23)n1", "Cyclin-dependent kinase 9 (Homo sapiens, UniProt P50750)", "26 nM"),
]
